- Test system: MDA-MB-231
- measurement_protocol: Cytotoxicity against human MDA-MB-231 cells at 10 to 50 uM after 75 hrs by MTT assay
- Format: cell-based
- condition_notes: mda-mb-231, 72 h, in the assay text read “72 hrs” for “75 hrs”
attribute_measured: Activity

Consider the reported Activity for these compounds:
COc1ccc(C/C=C/c2cc(OC)c(OC)c(OC)c2)cc1OC ... Non-toxic
COc1ccc(C(=O)CCc2cc(OC)c(OC)c(OC)c2)cc1OC ... Non-toxic
COc1ccc(/C=C/Cc2ccc(OC)c(OC)c2)cc1 ... Non-toxic
C=C(Cc1ccc(OC)c(OC)c1)c1ccc(OC)cc1 ... Non-toxic

Data request: Returns the measured Activity for the input compound. Input: COc1ccc(C/C=C/c2ccc(OC)c(OC)c2)cc1
Data returned: Non-toxic

Data request: Repeat for the following compound: COc1ccc(/C=C/Cc2cc(OC)c(OC)c(OC)c2)cc1OC
Data returned: Non-toxic
